System: HCC-2998
assay.procedure: NCI-60 anticancer screening (SRB)
Assay type: cell-based
cond: Homo sapiens; HCC-2998, colon cancer; one dose 10 μM; read-out: Growth Inhibition Percentage (GI %)
parameter: inhibition at 10 µM

Sample answers from the record:
compound	assayed.system	experimental.result
CCOC(=O)C1=C(N)N(c2ccc(C)cc2)C2=C(C(=O)CC(C)(C)C2)C1c1ccc(OC)cc1 (racemic)	HCC-2998	< 10%
CCOC(=O)C1=C(N)N(c2ccccc2)C2=C(C(=O)CC(C)(C)C2)C1c1ccccc1Cl (racemic)	HCC-2998	15%

Data request, read-out inhibition at 10 µM, for CCOC(=O)C1=C(N)N(c2ccc(Cl)cc2)C2=C(C(=O)CC(C)(C)C2)C1c1ccc(F)cc1 (racemic)
< 10%

Any idea what its inhibition at 10 µM is? The compound is CCOC(=O)C1=C(N)N(c2ccccc2)C2=C(C(=O)CC(C)(C)C2)C1c1ccccn1 (racemic) [12a]
< 10%

Please give the measured inhibition at 10 µM for this compound: CCOC(=O)C1=C(N)N(c2ccc(C)cc2)C2=C(C(=O)CC(C)(C)C2)C1c1ccc(Cl)cc1 (racemic)
< 10%

Quick one: inhibition at 10 µM for CCOC(=O)C1=C(N)N(c2ccc(C)cc2)C2=C(C(=O)CC(C)(C)C2)C1c1cccnc1 (racemic) [12e] ?
< 10%

----------
assayed.system: UniProt:P00533
Sequence (P00533 25-1210): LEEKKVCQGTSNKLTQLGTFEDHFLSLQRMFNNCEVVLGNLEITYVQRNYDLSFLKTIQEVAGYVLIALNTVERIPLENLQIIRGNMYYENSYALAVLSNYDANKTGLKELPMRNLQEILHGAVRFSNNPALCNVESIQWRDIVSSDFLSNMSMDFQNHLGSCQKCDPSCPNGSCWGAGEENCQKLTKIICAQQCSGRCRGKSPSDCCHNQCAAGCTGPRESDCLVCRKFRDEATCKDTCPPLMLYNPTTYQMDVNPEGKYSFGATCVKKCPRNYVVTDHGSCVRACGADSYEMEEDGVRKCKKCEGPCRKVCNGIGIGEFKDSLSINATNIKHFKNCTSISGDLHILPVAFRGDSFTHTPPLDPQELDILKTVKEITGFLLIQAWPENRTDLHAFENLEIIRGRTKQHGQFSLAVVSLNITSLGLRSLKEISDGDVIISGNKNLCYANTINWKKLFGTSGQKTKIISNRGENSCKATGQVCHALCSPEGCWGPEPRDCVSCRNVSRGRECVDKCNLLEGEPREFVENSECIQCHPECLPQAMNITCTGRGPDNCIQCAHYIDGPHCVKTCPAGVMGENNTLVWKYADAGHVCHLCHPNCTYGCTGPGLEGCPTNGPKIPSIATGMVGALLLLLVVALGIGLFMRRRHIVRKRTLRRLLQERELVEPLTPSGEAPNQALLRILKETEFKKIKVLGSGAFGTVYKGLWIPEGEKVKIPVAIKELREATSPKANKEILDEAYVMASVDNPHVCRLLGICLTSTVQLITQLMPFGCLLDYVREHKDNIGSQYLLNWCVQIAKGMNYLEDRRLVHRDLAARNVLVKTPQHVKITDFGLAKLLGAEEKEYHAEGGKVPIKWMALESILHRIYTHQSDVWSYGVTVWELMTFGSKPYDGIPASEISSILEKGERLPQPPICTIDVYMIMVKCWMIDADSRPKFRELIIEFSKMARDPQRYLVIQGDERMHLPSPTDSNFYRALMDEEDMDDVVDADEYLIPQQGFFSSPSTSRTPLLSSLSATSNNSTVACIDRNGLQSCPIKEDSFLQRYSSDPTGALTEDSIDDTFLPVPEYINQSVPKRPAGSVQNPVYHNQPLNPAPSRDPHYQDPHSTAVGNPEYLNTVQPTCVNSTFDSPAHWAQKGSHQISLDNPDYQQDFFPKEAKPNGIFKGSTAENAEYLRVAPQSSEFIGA
Please assign F whenever IC50 is at or above 200 nM, and T whenever it is below.

compound	assigned.category
CCOC(=O)C1=C(N)N(c2ccccc2)C2=C(C(=O)CC(C)(C)C2)C1c1cccc(Cl)c1Cl (racemic) [10a]	T

Could you please tell me whether IC50 recorded for CCOC(=O)C1=C(N)N(c2ccc(Cl)cc2)C2=C(C(=O)CC(C)(C)C2)C1c1ccccc1Cl (racemic) [6c] is less than 200 nM?
F

# check: IC50 < 200 nM for CCOC(=O)C1=C(N)N(c2ccccc2)C2=C(C(=O)CC(C)(C)C2)C1c1ccc(Cl)cc1Cl (racemic) [10c]
T

Is the reported IC50 for CCOC(=O)C1=C(N)N(c2ccc(Cl)cc2)C2=C(C(=O)CC(C)(C)C2)C1c1ccccc1OC (racemic) [6i] strictly below 200 nM?
T

Is the reported IC50 for CCOC(=O)C1=C(N)N(c2ccccc2)C2=C(C(=O)CC(C)(C)C2)C1c1ccccc1Cl (racemic) [6a] strictly below 200 nM?
F

Threshold test, IC50 < 200 nM: CCOC(=O)C1=C(N)N(c2ccc(Cl)cc2)C2=C(C(=O)CC(C)(C)C2)C1c1ccccc1Br (racemic) [6f]
F

----------
System: SNB-75
assay.procedure: NCI-60 anticancer screening (SRB)
Type: cell-based
cond: Homo sapiens; SNB-75, CNS cancer; one dose 10 μM; read-out: Growth Inhibition Percentage (GI %)
parameter: inhibition at 10 µM (%)
Number in %, nothing else.

compound	inhibition at 10 µM, %
CCOC(=O)C1=C(N)N(c2ccc(Cl)cc2)C2=C(C(=O)CC(C)(C)C2)C1c1cccnc1 (racemic) [12f]	21
CCOC(=O)C1=C(N)N(c2ccccc2)C2=C(C(=O)CC(C)(C)C2)C1c1cccc(Cl)c1Cl (racemic) [10a]	43
CCOC(=O)C1=C(N)N(c2ccc(C)cc2)C2=C(C(=O)CC(C)(C)C2)C1c1ccccc1Cl (racemic) [6b]	29
CCOC(=O)C1=C(N)N(c2ccccc2)C2=C(C(=O)CC(C)(C)C2)C1c1ccccc1Br (racemic) [6d]	33
CCOC(=O)C1=C(N)N(c2ccccc2)C2=C(C(=O)CC(C)(C)C2)C1c1ccccn1 (racemic) [12a]	19
CCOC(=O)C1=C(N)N(c2ccccc2)C2=C(C(=O)CC(C)(C)C2)C1c1ccc(Cl)cc1 (racemic) [8c]	27
CCOC(=O)C1=C(N)N(c2ccc(C)cc2)C2=C(C(=O)CC(C)(C)C2)C1c1cccnc1 (racemic) [12e]	14
CCOC(=O)C1=C(N)N(c2ccc(Cl)cc2)C2=C(C(=O)CC(C)(C)C2)C1c1cccc(Cl)c1Cl (racemic) [10b]	22

Reported inhibition at 10 µM for CCOC(=O)C1=C(N)N(c2ccc(Cl)cc2)C2=C(C(=O)CC(C)(C)C2)C1c1ccccc1Br (racemic) [6f] : what is it?
16

Name the reported inhibition at 10 µM value associated with the compound CCOC(=O)C1=C(N)N(c2ccccc2)C2=C(C(=O)CC(C)(C)C2)C1c1cccnc1 (racemic) [12d]
17
